Target: T1, cynomolgus monkey IL-33 expressed with a C-terminal hexahistidine tag (cynomolgus monkey)
T1 construct: also called MfIL-33-6His; Mf-IL-33-6His
T1 chain: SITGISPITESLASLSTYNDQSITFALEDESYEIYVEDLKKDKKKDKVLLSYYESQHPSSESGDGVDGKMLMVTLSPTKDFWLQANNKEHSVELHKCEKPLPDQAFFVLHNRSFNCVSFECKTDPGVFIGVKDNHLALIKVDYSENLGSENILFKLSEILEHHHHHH
Experiment: BLI; captured MfIL-33-6His, mAb-1 step with Isotype control
measured_attribute: mAb-2 Binding to the Pre-complex of mAb-1 & MfIL-33-6xHis (nm)

- H4H9672P (antibody, human IgG4, V domains shown, Human IgG4 Fc (H4H)) VH: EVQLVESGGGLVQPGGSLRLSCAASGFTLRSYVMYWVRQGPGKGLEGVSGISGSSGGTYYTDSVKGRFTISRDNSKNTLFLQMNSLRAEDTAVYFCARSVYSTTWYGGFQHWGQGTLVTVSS VL: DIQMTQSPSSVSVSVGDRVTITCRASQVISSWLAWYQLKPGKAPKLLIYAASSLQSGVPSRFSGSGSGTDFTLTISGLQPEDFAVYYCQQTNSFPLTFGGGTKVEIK: 0.25
- H4H9667P (antibody, human IgG4, V domains shown, Human IgG4 Fc (H4H)) VH: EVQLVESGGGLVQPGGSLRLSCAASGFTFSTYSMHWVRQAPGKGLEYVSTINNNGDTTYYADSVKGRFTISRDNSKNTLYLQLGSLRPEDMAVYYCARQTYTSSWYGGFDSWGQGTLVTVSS VL: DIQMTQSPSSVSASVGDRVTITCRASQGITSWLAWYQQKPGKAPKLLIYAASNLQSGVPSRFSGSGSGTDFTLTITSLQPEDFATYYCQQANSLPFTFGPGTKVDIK: 0.26
- H4H9659P (antibody, human IgG4, V domains shown, Human IgG4 Fc (H4H)) VH: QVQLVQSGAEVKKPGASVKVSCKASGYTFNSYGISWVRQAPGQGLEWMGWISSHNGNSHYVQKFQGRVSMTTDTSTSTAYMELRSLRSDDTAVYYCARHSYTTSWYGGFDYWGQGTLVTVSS VL: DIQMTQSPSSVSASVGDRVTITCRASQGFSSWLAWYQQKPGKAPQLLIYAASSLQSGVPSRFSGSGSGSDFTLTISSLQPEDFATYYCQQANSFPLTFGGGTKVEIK: 0.25
- H4H9666P (antibody, human IgG4, V domains shown, Human IgG4 Fc (H4H)) VH: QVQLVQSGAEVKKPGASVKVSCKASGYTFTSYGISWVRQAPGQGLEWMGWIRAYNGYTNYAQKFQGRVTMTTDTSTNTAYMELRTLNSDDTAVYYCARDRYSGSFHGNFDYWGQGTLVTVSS VL: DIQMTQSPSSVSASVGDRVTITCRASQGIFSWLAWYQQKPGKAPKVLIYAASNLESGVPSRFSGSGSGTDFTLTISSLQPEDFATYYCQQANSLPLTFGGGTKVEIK: 0.28
- H4H9665P (antibody, human IgG4, V domains shown, Human IgG4 Fc (H4H)) VH: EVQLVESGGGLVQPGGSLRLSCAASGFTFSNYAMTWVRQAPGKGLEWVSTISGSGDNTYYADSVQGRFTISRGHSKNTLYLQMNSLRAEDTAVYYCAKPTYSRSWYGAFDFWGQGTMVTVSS VL: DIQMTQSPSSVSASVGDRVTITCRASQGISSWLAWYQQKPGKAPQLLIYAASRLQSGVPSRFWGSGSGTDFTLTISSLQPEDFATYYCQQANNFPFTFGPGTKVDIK: 0.3

Taken from patent US20160362487A1.
